Data provenance: PubChem BioAssay (NCI)

test.summary: NCI Yeast Anticancer Drug Screen. Data for the sgs1 mgt1 strain (AID 161);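 note: 0% = growth of cultures given vehicle only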
conditions: S. cerevisiae sgs1 mgt1 strain; at 50.0 µM unless noted
About 79,000 compounds went through this panel and 15% of them were active in at least one assay; those are over-represented in the sample as a whole. Activity calls are given as the source filed them. Cut-off read from the data, not from the text of the source: active = growth inhibition above about 70%; inactive = the rest.
Please state which outcome applies, choosing from 1 (yes) = active, 0 (no) = inactive

compound: CCOCc1cccc2ccccc12
class.assignment: 0 (no)
//
compound: CC(=O)c1ccc(NC(=O)C(=O)C(C(=O)c2ccc(Cl)c(Cl)c2)C2OC(=O)c3ccccc32)cc1 (configuration not stated)
class.assignment: 0 (no)
//
compound: CC(=O)Nc1cc(C)cc(CO)c1C
class.assignment: 0 (no)
//
compound: COc1ccc(/C=N/NS(=O)(=O)c2ccc(NC(C)=O)cc2)cc1
class.assignment: 0 (no)
//
compound: O=C(NC(NC(=O)c1ccccc1)c1ccccc1)c1ccccc1
class.assignment: 0 (no)
//
compound: CC(O)CCC(=O)c1nc2ccccc2s1 (configuration not stated)
class.assignment: 0 (no)
//
compound: O=C1c2ccccc2C(=O)N1c1ccc(Cc2ccc(N3C(=O)c4ccccc4C3=O)cc2)cc1
class.assignment: 0 (no)
//
compound: O=C(O)CCNC(=O)CNC(=O)OCc1ccccc1
class.assignment: 0 (no)
//
compound: O=Cc1ccc(C=O)o1
class.assignment: 0 (no)
//
compound: CCOc1ccc2nc(NC(=O)C(=O)C(c3cnc4ccccc4n3)[N+](=O)[O-])sc2c1 (configuration not stated)
class.assignment: 0 (no)

Exercise: # outcome recorded in this test, key = COc1ccc(NC(=O)CC/C(CC(=O)c2ccco2)=N/NC(=O)C(N)=O)cc1
Solution: 0 (no)

* * *

In this section, each of the compounds is paired with its reported growth inhibition.
test.summary: NCI Yeast Anticancer Drug Screen. Data for the sgs1 mgt1 strain (AID 161);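 note: 0% = growth of cultures given vehicle only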
conditions: S. cerevisiae sgs1 mgt1 strain, active compounds read high; at 50.0 µM unless noted
Compounds without any hit were thinned out: in the full panel of roughly 79,000, 15% have a hit.
Please reply with the bare figure in % and do not write the unit itself.

compound: Cc1ncc([N+](=O)[O-])n1CC(O)Cn1cnc([N+](=O)[O-])n1 (stereo unspecified)
growth inhibition, %: -1.75

Consider the additional compound presented here.
Exercise: Quick check: growth inhibition of O=C(O)c1ccc(NCO)cc1 ?
Solution: -13.2

* * *

test.summary: NCI Yeast Anticancer Drug Screen. Data for the rad50 strain (AID 155);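 note: 0% = growth of vehicle-only cultures of the same strain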
conditions: S. cerevisiae rad50 strain growth inhibition, active compounds read high; at 50.0 µM unless noted
Compounds without any hit were thinned out: in the full panel of roughly 79,000, 15% have a hit.
In this section, each of the molecules is paired with its reported growth inhibition.
Please reply with the bare figure in % and do not write the unit itself.

molecule: COc1ccc(NC(C)=O)cc1
growth inhibition [%]: 24.8
//
molecule: COc1ccc2c(c1)CCN1CCCc3ccccc3C21 (stereo unspecified)
growth inhibition [%]: 22.4
//
molecule: Cc1cc(C)c2c(c1)sc1n[nH]c(=S)n12
growth inhibition [%]: 14.1

Exercise: Quick check: growth inhibition of Cc1ccc2nc(-c3ccc(NC(=O)c4ccc(N)cc4)c(S(=O)(=O)O)c3)sc2c1 ?
Solution: 1.9

Exercise: Now this one: COC(=O)C1=CN(CCc2ccc(O)cc2)C(=O)C2C1CC(O)C2C (stereo unspecified)
Solution: 5.6

Exercise: Now this one: Cc1ccc(S(=O)(=O)NC(=O)NNc2ccc(F)cc2)cc1
Solution: 2.5
